# ASSAY OVERVIEW: yeast display, Sf9 membrane polyspecificity reagent, FACS + sequencing; frameworks hold sequencing errors
MEASUREMENT LABEL: polyreactivity (PSR sort gate)

QVQLVESGGGLVQAGGSLRLSCAASGLIFTAYAMGWYRPAPGKERELVAAITGSGGRTYYADSVKGRFTISRDNALNSVYLQMNSLKAEDTAVYYCAADFPARGSSTYDYWGQGTQVTVSS high polyreactivity
QVQLVESGGGLVQAGGSLRLTCAASGSTFIRYTMVWYRQAPGKEREFVATITWSTGTTYYADSVKGRFTISRDNAKYSVYLQMNSLKPEDTAVYYCAAVYYYYTGITYDYWGQGTQVTVSS high polyreactivity
QVQLVESGGGLVQAGGSLRLSCAASGRTFRANDMGWYRQAPGKERELVAAISQSGGSTYYADSVKGRFTISRDNAKNTVYFQMNSLKPEDTAVYDCNALGRISNHTLYDYWGQGTQVTVSS low polyreactivity
QVQLVESGGGLVQAGGSLRLSCAASGFTFDSNAMGWYRQAPGKERELGAAISKRGGSTYYADSVKGRFTISRDNAKNTVYLQMNSLKPEDTAVYYCAADNYNSGGTRHMYYWGQGTQVTVSS high polyreactivity

Next sequence, polyreactivity (PSR sort gate) to be filled in.
Q) Look up polyreactivity (PSR sort gate) for this sequence: KVQLVESVGGLVQAGGSLRLSCAASGFTFCRNTMGWYRQAPGKEREFVAAITVTGGSTYYADSVKGRFTISRDNAKNTVYLQMNSLKPEDTAVYYCAAGWTSAYVNYDYWGQGTQVTVSS
A) low polyreactivity
